Consider molecules characterized by their Ki with 5-hydroxytryptamine receptor 2A (Sus scrofa, UniProt P50129).
Sequence (P50129 whole entry): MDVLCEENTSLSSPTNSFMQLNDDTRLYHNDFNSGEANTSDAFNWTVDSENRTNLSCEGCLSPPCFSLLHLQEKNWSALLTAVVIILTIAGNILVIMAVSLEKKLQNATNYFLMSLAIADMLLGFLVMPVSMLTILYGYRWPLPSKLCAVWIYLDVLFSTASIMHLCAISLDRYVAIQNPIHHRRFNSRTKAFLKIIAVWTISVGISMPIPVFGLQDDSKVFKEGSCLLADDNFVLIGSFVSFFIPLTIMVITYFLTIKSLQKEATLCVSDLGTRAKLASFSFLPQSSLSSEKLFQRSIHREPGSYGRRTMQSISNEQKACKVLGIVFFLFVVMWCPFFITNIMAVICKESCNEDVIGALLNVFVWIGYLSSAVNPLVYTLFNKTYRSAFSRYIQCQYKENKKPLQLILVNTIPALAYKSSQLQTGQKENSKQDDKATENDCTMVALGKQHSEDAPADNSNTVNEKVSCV
Numeric only. Scale: µM

Worked examples follow.
> print(dat)
                               cpd.smiles  endpoint.unit  obs.value
1  Fc1ccc(CN2CCN(c3ccc4c(c3)OCCO4)CC2)cc1             µM          7
2  Fc1ccc(CN2CCN(c3ccc4c(c3)OCCO4)CC2)cn1             µM        5.8

Now look at this one.
Item `Oc1cc(CN2CCN(c3ccc4c(c3)OCCO4)CC2)ccc1F` was tested on 5-hydroxytryptamine receptor 2A (Sus scrofa, UniProt P50129); the reported Ki is 2.3
